Parameter 'readout' = pIC50; parameter 'system' = Proteasome chymotrypsin-like activity (S26 protein from RPMI8226 cells) (Homo sapiens).
Sequence (P28074 60-263 limits assumed): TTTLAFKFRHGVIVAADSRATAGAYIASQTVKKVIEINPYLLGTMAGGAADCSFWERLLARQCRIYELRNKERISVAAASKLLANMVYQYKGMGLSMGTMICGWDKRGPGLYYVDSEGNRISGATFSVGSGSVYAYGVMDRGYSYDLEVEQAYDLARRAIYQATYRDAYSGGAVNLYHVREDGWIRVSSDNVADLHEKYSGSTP
pIC50: −log10 of the molar value.

# count of solved cases: 3
- molecule: "CC(C)C[C@H](NC(=O)C1(Cc2ccccc2)CC(CNC(=O)c2ccccc2)=NO1)B(O)O (stereo partly shown)"
  property.name: "pIC50"
  measured: "> 8.00"
- molecule: "CC(C)C[C@H](NC(=O)C1(Cc2ccccc2)CC(COc2cccc(Cl)c2)=NO1)B(O)O (stereo partly shown)"
  property.name: "pIC50"
  measured: "> 8.00"
- molecule: "CC(C)C[C@H](NC(=O)C1CC(c2nccc3ccccc23)=NO1)B(O)O (stereo partly shown)"
  property.name: "pIC50"
  measured: "> 6.60"

Would you kindly look at the next entry?
Which pIC50 value belongs to Cc1cnc(COCC2=NOC(Cc3ccccc3)(C(=O)N[C@@H](CC(C)C)B(O)O)C2)cn1 (stereo partly shown) ?
> 7.60

These data points were gathered from patent US12570675B2.
